This collection of values is drawn from patent US20240336608A1.

# target-entity: recombinant IL4I1 (Homo sapiens, UniProt Q96RQ9)
# Sequence (Q96RQ9 22-567): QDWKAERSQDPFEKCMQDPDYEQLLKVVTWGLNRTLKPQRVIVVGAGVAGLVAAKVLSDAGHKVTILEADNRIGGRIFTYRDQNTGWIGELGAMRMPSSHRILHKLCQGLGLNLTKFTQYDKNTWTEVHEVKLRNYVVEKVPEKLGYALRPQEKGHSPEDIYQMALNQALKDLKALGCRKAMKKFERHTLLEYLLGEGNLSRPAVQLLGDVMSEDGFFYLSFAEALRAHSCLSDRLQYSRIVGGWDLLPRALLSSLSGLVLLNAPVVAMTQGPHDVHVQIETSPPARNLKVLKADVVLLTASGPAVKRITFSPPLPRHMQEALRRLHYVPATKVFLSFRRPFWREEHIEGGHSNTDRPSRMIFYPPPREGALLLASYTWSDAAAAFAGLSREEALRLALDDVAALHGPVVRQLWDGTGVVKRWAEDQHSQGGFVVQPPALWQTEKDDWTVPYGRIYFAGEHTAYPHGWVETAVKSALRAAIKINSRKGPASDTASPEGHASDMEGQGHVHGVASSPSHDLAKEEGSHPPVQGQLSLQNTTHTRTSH
# protocol-notes: IL4I1 Enzymatic Assay (Amplex Red/HRP coupled detection of H2O2, fluorescence)
# condition-set: 1 nM recombinant IL4I1; four-hour pre-incubation with compound; 1 mM each Phe, Tyr, Trp; ten-point titration
value-type: EC50 (nM)

Answered examples (7):
INSERT INTO measurements (molecule, value_type, measurement) VALUES
  ('C[C@@H](C1COC1)n1cc(C(=O)NCc2nnc(-c3ccccc3)s2)nn1', 'EC50', 164),
  ('O=C(NCc1nnc(-c2ccccc2)s1)c1cn([C@@H]2COC[C@H]2CO)nn1 (stereo in doubt)', 'EC50', 325),
  ('O=C(NCc1cc(-c2ccccc2)no1)c1cn(C2COC2)nn1', 'EC50', 209),
  ('N#CCCCn1cc(C(=O)NCc2nnc(-c3ccccc3)s2)nn1', 'EC50', 52),
  ('O=C(NCc1nnc(-c2ccccc2)s1)c1cn(CC(O)CO)nn1 (stereo not drawn)', 'EC50', 12),
  ('O=C(NCc1nnc(-c2ccccc2)s1)c1cn(CC2(F)CCC2)nn1', 'EC50', 100),
  ('Cc1ccc(-n2cc(C(=O)NCc3cc(-c4ccccc4)no3)nn2)c(C)n1', 'EC50', 9);

I = CCOc1ccsc1C(=O)NCc1nnc(-c2ccccc2)s1
II = Cn1ccc(C(=O)NCc2nnc(-c3ccccc3)s2)c1
I'm curious, which of these has a smaller EC50 number: I or II ? State your choice using its label.
I

###

# target-entity: recombinant IL4I1 (Homo sapiens, UniProt Q96RQ9)
# Construct: purchased R&D Systems 5684-AO-020
# protocol-notes: IL4I1 Enzymatic Assay (Amplex Red/HRP coupled detection of H2O2, fluorescence)
# Assay type: biochemical
# condition-set: 1 nM recombinant IL4I1; four-hour pre-incubation with compound; 1 mM each Phe, Tyr, Trp; ten-point titration
# Description: Interleukin 4 inducible protein 1 (IL4I1) is an L-amino oxidase that catalyzes the oxidation of aromatic residues (Phe, Trp and Tyr): L-amino acid+H2O+O2→2-oxo acid+NH3+H2O2. […] In this assay, the hydrogen peroxide generated by IL4I1 is then detected through a coupled reaction with Amplex Red (10-acetyl-3,7-dihydroxyphenoxazine) and […] (HRP) to produce Resorufin product that could be detected in the form of fluorescence signals. […]
pEC50: −log10 of the molar value.
value-type: pEC50

INSERT INTO measurements (molecule, value_type, measurement) VALUES
  ('Cc1csc(C(=O)NCc2nnc(-c3ccccc3)s2)c1Cl [Example 37]', 'pEC50', 7.92),
  ('O=C(NCc1nnc(-c2ccccc2)s1)c1cn(CC2CCCC2)nn1 [Example 78]', 'pEC50', 7.47),
  ('O=C(NCc1nnc(-c2ccccc2)s1)c1cn(CCC(F)(F)F)nn1 [Example 62]', 'pEC50', 8.15);

a = CC(C)(C)c1cc(C(=O)NCc2nnc(-c3ccccc3)s2)[nH]n1 [Example 9]
b = CC(C)n1cc(C(=O)NCc2nnc(-c3ccncc3)s2)nn1 [Example 269]
c = Cc1ccsc1C(=O)NCc1nnc(-c2ccccc2)s1 [Example 15]
d = COCC[C@@H](C)n1cc(C(=O)NCc2nnc(-c3ccccc3)s2)nn1 [Example 65]
Ordering: ascending pEC50. Give the labels in the order requested.
a, c, d, b
(a: 6.32, c: 6.82, d: 7.17, b: 8.00)

P = N#CC1(n2cc(C(=O)NCc3nnc(-c4ccccc4)s3)nn2)CC1 [Example 160]
Q = O=C(NCc1nnc(-c2ccccc2)s1)c1cn(C2C[C@@H]2C(F)F)nn1 (single isomer, unassigned) [Example 143]
R = CC(C)(O)c1cc(C(=O)NCc2nnc(-c3ccccc3)s2)no1 [Example 317]
S = Cc1ccc(-n2cc(C(=O)NCc3cc(-c4nccs4)on3)nn2)c(C)n1 [Example 273]
Put the entries in order of pEC50, starting with the largest number. Reply: labels, ordered per the request.
R, P, Q, S
(R: 7.68, P: 7.44, Q: 6.75, S: 6.29)

A = CC1(n2cc(C(=O)NCc3nnc(-c4ccccc4)s3)nn2)CCC1 [Example 124]
B = Cc1ccc(-n2cc(C(=O)NC(C)c3nnc(-c4ccccc4)s3)nn2)c(C)n1 (single isomer, unassigned) [Example 262]
Record comparison, field pEC50: mark the lower of A and B . Please reply using the label of the selected record.
B

I = O=C(NCc1nnc(-c2ccccc2)s1)c1n[nH]c(C2CC2)c1F [Example 31]
II = O=C(NCc1nnc(-c2ccccc2)s1)c1cn(C2(C(F)F)CC2)nn1 [Example 152]
Looking only at measured pEC50, which entry is lower, I or II ? Use the label to indicate which entry you chose.
II
